Each recorded value in this set is attributed to the NIST ThermoML archive (doi:10.1021/acs.jced.7b00191).

Conditions: Liquid; Visual observation in an unstirred cell
property measured: Critical temperature (K)

molecule="Fc1ccccc1 [fluorobenzene]" reported=557.3
molecule="CCC(C)(C)C [2,2-dimethylbutane]" reported=489.4
molecule="c1ccccc1 [benzene]" reported=562.2
molecule="CCCCCCC [heptane]" reported=540.6
molecule="CCCCCCCC [octane]" reported=568.8
molecule="CC(C)CC(C)(C)C [2,2,4-trimethylpentane]" reported=544
molecule="Clc1ccccc1Cl [1,2-dichlorobenzene]" reported=698.8
molecule="CCCCCC [hexane]" reported=507.4
